Listed below: TGI values for each entry.
System: HT29 colon
PROTOCOL_TEXT: NCI tumour cell line growth inhibition, 48 h
MEASURED_QUANTITY: TGI

# COMPOUND, SYSTEM_NAME, MEASURED_QUANTITY, OBSERVED_RESULT
measured = [
    ("COc1cc(-c2c(C#N)c(N)nc(N3CCOCC3)c2C#N)cc(OC)c1OC", "HT29 colon", "TGI", "> 100 µM"),
    ("CCOC(=O)C(NC(=O)c1ccccc1)(Nc1ccc(Cl)cc1C(F)(F)F)C(F)(F)F (configuration not stated)", "HT29 colon", "TGI", "6.53 µM"),
    ("CCCCCCCCCCCCCCCCC(=O)O.CCCCCCCCCCCCCCCCCC(=O)O.CCCCCCCCCCCCCCCCCC(=O)O.CCCCCCCCCCCCCCCCCC(=O)O.CCCCCCCCCCCCCCCCCC(=O)O.CO[CH-]OC12COC1CC(O)C1(C)C(O)C(OC(C)O)C3=C(C)C(OC(=O)C(O)C([NH-])c4ccccc4)CC(O)(C(OC(=O)c4ccccc4)C21)C3(C)C.[Cu+].[Zn].[Zn].[Zn].[Zn].[Zn] (configuration not stated)", "HT29 colon", "TGI", "> 25 µM"),
    ("O=C1OCC2=C1C(c1ccc(Cl)c(Cl)c1)c1cc3c(cc1N2CCO)CCC3 (configuration not stated)", "HT29 colon", "TGI", "0.646 µM"),
    ("Cn1cc(C2=C(c3cn(C)c4ccccc34)C(=O)NC2=O)c2ccccc21", "HT29 colon", "TGI", "> 25 µM"),
    ("COc1ccc(C(=O)C(c2ccc(OCc3ccccc3)cc2)c2ccc(OCc3ccccc3)cc2)cc1", "HT29 colon", "TGI", "> 100 µM"),
    ("CN1CCC2(CC1)C(=NC1CCCCC1)NC(=S)N2c1ccccc1", "HT29 colon", "TGI", "> 100 µM"),
]

Data origin: PubChem BioAssay (NCI)
